- Species: Rattus norvegicus
- test.name: Open TG-GATES - Regimen: Daily Repeat
- Type: toxicity, organism-based, Sprague-Dawley
- Design: regimen Daily Repeat, gender Male, age 6 weeks
- stated.conditions: in vivo, po, 0 mg/kg, […], tissue Plasma, route gavage, dose level Control, time 14 day
The following compounds are shown together with reported K values.
Give your result in meq/L as a bare value.

# count of solved cases: 2
O=P1(N(CCCl)CCCl)NCCCO1 (stereo unspecified) [CYCLOPHOSPHAMIDE ANHYDROUS] : 4
C=CCO : 3.7

Looking for the measured K of O=C1NC(=O)C(c2ccccc2)(c2ccccc2)N1 , can you help?
4.3

Looking for the measured K of COc1ccc(Cl)cc1C(=O)NCCc1ccc(S(=O)(=O)NC(=O)NC2CCCCC2)cc1 [GLYBURIDE] , can you help?
4

Looking for the measured K of Cc1cnc(NC(=O)C2=C(O)c3ccccc3S(=O)(=O)N2C)s1 , can you help?
4

Looking for the measured K of CS(=O)(=O)Nc1ccc([N+](=O)[O-])cc1Oc1ccccc1 [NIMESULIDE] , can you help?
4.7

Looking for the measured K of Cc1cccc(Nc2cc(Cl)nc(SCC(=O)O)n2)c1C , can you help?
3.8

Looking for the measured K of Cn1cnc([N+](=O)[O-])c1Sc1ncnc2nc[nH]c12 , can you help?
4.3

Looking for the measured K of COc1ccc(O)c(C(C)(C)C)c1.COc1ccc(O)cc1C(C)(C)C [BUTYLATED HYDROXYANISOLE] , can you help?
3.7

Looking for the measured K of Cn1c(=O)c2c(ncn2C)n(C)c1=O , can you help?
4.5

Looking for the measured K of O=C1CN(/N=C/c2ccc(-c3ccc([N+](=O)[O-])cc3)o2)C(O)=N1 , can you help?
4.5

* * *

The following compounds are shown together with reported PL values.
- Species: Rattus norvegicus
- test.name: Open TG-GATES - Regimen: Daily Repeat
- Format: toxicity, organism-based, Sprague-Dawley
- Design: regimen Daily Repeat, gender Male, age 6 weeks
- stated.conditions: in vivo, po, 0 mg/kg, […], tissue Plasma, route gavage, dose level Control, time 28 day
Give your result in mg/dL as a bare value.

# count of solved cases: 8
Cc1cccc(Nc2cc(Cl)nc(SCC(=O)O)n2)c1C : 139.6
O=C1CN(/N=C/c2ccc(-c3ccc([N+](=O)[O-])cc3)o2)C(O)=N1 : 143.4
COc1ccc(Cl)cc1C(=O)NCCc1ccc(S(=O)(=O)NC(=O)NC2CCCCC2)cc1 [GLYBURIDE] : 143.8
O=P1(N(CCCl)CCCl)NCCCO1 (centres undefined) [CYCLOPHOSPHAMIDE ANHYDROUS] : 135.4
C=CCO : 141.8
O=C1NC(=O)C(c2ccccc2)(c2ccccc2)N1 : 139.6
CS(=O)(=O)Nc1ccc([N+](=O)[O-])cc1Oc1ccccc1 [NIMESULIDE] : 152
COc1ccc(O)c(C(C)(C)C)c1.COc1ccc(O)cc1C(C)(C)C [BUTYLATED HYDROXYANISOLE] : 134.6

Please find the next compound below.
Looking for the measured PL of Cn1cnc([N+](=O)[O-])c1Sc1ncnc2nc[nH]c12 , can you help?
145.8

* * *

The following molecules are shown together with reported Na values.
- Organism: Rattus norvegicus
- test.name: Open TG-GATES - Regimen: Single
- Format: toxicity, organism-based, Sprague-Dawley
- Design: regimen Single, gender Male, age 6 weeks
- stated.conditions: in vivo, po, 0 mg/kg, 3 h, tissue Plasma, route gavage, dose level Control
Give your result in meq/L as a bare value.

Looking for the measured Na of C=CCO , can you help?
140
